This collection of values is drawn from ChEMBL document CHEMBL6153133.

# TESTED_SYSTEM: Calcium-activated potassium channel subunit alpha-1 (Homo sapiens)
# Sequence (Q12791 whole entry): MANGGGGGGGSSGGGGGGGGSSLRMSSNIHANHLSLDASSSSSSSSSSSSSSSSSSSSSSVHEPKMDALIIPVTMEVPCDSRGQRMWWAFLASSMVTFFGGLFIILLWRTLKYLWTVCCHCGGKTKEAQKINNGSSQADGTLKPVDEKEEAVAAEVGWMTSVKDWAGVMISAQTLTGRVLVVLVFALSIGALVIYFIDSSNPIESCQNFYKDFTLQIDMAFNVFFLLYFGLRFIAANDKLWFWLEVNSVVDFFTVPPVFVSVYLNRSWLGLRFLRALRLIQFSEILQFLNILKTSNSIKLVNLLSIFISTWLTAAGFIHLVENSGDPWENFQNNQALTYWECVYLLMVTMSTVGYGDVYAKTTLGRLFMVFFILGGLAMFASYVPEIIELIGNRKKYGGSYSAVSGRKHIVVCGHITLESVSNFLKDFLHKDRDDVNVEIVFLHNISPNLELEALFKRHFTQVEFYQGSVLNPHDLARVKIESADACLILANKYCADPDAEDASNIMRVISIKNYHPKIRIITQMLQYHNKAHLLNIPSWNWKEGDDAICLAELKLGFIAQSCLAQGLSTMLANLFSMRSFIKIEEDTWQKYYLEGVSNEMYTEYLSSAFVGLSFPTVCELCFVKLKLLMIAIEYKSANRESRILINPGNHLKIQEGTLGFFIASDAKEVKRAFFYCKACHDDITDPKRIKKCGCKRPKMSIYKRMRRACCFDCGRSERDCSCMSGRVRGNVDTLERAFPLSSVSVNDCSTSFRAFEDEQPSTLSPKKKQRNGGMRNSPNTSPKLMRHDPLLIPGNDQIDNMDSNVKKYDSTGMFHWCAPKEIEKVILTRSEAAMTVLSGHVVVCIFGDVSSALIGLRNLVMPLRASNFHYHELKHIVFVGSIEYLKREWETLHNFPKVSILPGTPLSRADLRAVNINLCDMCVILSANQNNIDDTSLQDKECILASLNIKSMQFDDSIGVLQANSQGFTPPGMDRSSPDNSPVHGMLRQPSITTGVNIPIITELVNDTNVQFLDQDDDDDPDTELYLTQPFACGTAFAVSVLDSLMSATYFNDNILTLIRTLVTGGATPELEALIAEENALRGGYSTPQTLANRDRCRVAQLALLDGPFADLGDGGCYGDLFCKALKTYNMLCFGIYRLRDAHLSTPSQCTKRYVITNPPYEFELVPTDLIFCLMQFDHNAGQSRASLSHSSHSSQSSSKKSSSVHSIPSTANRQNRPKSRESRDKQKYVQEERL
# METHOD_SUMMARY: Activation of BKca channel (unknown origin) by cell-based fluorescence assay
pEC50: −log10 of the molar value.
ASSAY_ENDPOINT: pEC50

O=C(O)c1ccc(Cl)c2c1[nH]c1c3ccc(C(F)(F)F)cc3oc12 = 5.27

I. Cc1cccc(NC(=O)c2sc(=S)n3c2[nH]c(=O)c2cc(Br)ccc23)c1
II. FC(F)(F)c1cc(NC(=S)Nc2ccc(Br)cc2-c2nnn[nH]2)cc(C(F)(F)F)c1
Problem: So which one has the bigger pEC50 here, I or II ? # answer = label of selected item
Solution: I
(I: 5.57, II: 5.15)

====

# METHOD_SUMMARY: AUClast in male Sprague-Dawley rat at 10 mg/kg, iv by LC-MS/MS analysis
# Assay type: ADME, organism-based
# TEST_CONDITIONS: in vivo
ASSAY_ENDPOINT: AUC(0-t) (ng·h/mL)

a. Cl.Nc1ccc(Oc2c(F)c(F)c(C(F)(F)F)c(F)c2F)c(O)c1
b. COc1cc(N)ccc1Oc1c(F)c(F)c(C(F)(F)F)c(F)c1F.Cl
Problem: So which one has the bigger AUC(0-t) here, a or b ? # answer = label of selected item
Solution: b
(b: 6260 ng·h/mL, a: 1450 ng·h/mL)

====

# Tested on: Calcium-activated potassium channel subunit alpha-1 (Homo sapiens), Q12791 [UNDEFINED MUTATION]
# Sequence (Q12791 whole entry, looked up, stated change not applied): as the sequence (Q12791 whole entry) above
# METHOD_SUMMARY: Activation of hyperactive human BKca channel G803D/N806K mutant transfected in human AD-293 cells assessed as maximum relative fluorescence value at 5 uM preincubated for 15 mins followed by Tl+ stimulus buffer addition and measured after 80 sec by Flexstation3 multimode microplate reader analysis relative to control
# Type: cell-based
# TEST_CONDITIONS: time 980.0 sec
ASSAY_ENDPOINT: Activity (%)

Take a look at these entries with their results.
Fc1c(F)c(C(F)(F)F)c(F)c(F)c1Oc1ccc2[nH]ccc2c1 = 1
CN(C)c1ccc(Oc2c(F)c(F)c(C(F)(F)F)c(F)c2F)c(O)c1 = 10.2
NCCCNc1ccc(Oc2c(F)c(F)c(C(F)(F)F)c(F)c2F)c(O)c1 = 2.4

1. Nc1ccc(Oc2c(F)c(F)c(C(F)(F)F)c(F)c2F)c(N)c1
2. NCCNc1ccc(Oc2c(F)c(F)c(C(F)(F)F)c(F)c2F)c(O)c1
3. Oc1ccc(Oc2ccc(Cl)c(Cl)c2)c(O)c1
Problem: Highest Activity first, then in falling order down to the smallest. List the labels in the requested order.
Solution: 3, 1, 2
(3: 18.6%, 1: 10.3%, 2: 3.3%)

====

# METHOD_SUMMARY: Drug concentration in male Dunkin Hartley guinea pig blood at 10 mg/kg, po measured after 1 hrs by LC-MS/MS analysis
# Assay type: ADME, organism-based, Cavia porcellus
# TEST_CONDITIONS: read-out: Ct
ASSAY_ENDPOINT: concentration at 1 h (ng/mL)
Value expressed in ng/mL; do not type the unit.

Problem: What value of measured concentration at 1 h is listed for `Cl.Cl.Oc1cc(NCCCCCN2CCOCC2)ccc1Oc1c(F)c(F)c(C(F)(F)F)c(F)c1F` ?
Solution: 28

====

# METHOD_SUMMARY: Half-life in male Dunkin Hartley guinea pig at 10 mg/kg, iv by LC-MS/MS analysis
# Assay type: ADME, organism-based, Cavia porcellus
# TEST_CONDITIONS: in vivo
ASSAY_ENDPOINT: half-life (h)
Value expressed in h; do not type the unit.

Problem: What value of measured half-life is listed for `Cl.Cl.Oc1cc(NCCCCCN2CCOCC2)ccc1Oc1c(F)c(F)c(C(F)(F)F)c(F)c1F` ?
Solution: 4
